- TESTED ON: 4'-phosphopantetheinyl transferase ffp (Bacillus subtilis)
- TEST PROTOCOL: qHTS Assay for Inhibitors of Bacillus subtilis Sfp phosphopantetheinyl transferase (PPTase);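 further: the enzyme is Sfp with the accession as filed and its product quenches rhodamine fluorescence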;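 on largest response in the series, negative = inhibition: 0% = enzyme reaction without inhibitor and -100% = no enzyme wells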
- CONDITION DESCRIPTION: Biochemical Sfp PPTase activity
The whole screen tested about 310,000 compounds, of which about 11,000 (3.5%) were called active. About 4% were inconclusive and are not listed. Shown is part of a subset that was picked to be rich in actives.
PARAMETER MEASURED: largest response in the series, negative = inhibition (%)
Give just the number in %; leave the unit off.

Known results for compounds:
Cc1ccc(NC(=O)CSc2nnc(CNC(=O)c3ccccc3F)o2)cc1Cl    12.4
CCOC(=O)c1cccc(NS(=O)(=O)c2c(C(=O)N3CCCCCC3)c(C)n(C)c2C)c1    2.36
Nc1nonc1-n1nnc(C(=O)N/N=C\c2ccncc2)c1CN1CCCCC1    21.3
O=C1OC(/C=C/c2ccccc2)=NC/1=C/c1ccco1    12.2
Cc1cccnc1NC(=O)CSc1nnc(COc2ccc(C(C)C)cc2)n1C    -2.86

# input What value of largest response in the series, negative = inhibition has been recorded for this entry: Cc1ccc2c(c1)N(CC(=O)NCC1CCCO1)C(=O)CO2 (stereo unspecified)
# output 20.7

# input What value of largest response in the series, negative = inhibition has been recorded for this entry: "O=[N+]([O-])c1ccccc1NCc1ccc(Cl)cc1"
# output -18.2

# input What value of largest response in the series, negative = inhibition has been recorded for this entry: "O=C(c1cc(C(=O)N2CCN(c3ccc(F)cc3)CC2)cc([N+](=O)[O-])c1)N1CCN(c2ccc(F)cc2)CC1"
# output 21.7

# input What value of largest response in the series, negative = inhibition has been recorded for this entry: "CCOc1ccc(CN(C)C(=O)c2ccc(=O)[nH]c2)cc1"
# output 8.69

# input What value of largest response in the series, negative = inhibition has been recorded for this entry: "COc1cc2c(cc1OC)CC(=O)N(CCCN(C)C[C@H]1Cc3cc(OC)c(OC)cc31)CC2"
# output 9.18

---

- TESTED ON: 4'-phosphopantetheinyl transferase ffp (Bacillus subtilis)
- TEST PROTOCOL: qHTS Assay for Inhibitors of Bacillus subtilis Sfp phosphopantetheinyl transferase (PPTase); further: potency means the concentration at half of the fitted maximal effect;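 further: the enzyme is Sfp with the accession as filed and its product quenches rhodamine fluorescence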
- CONDITION DESCRIPTION: Biochemical Sfp PPTase activity
The whole screen tested about 310,000 compounds, of which about 11,000 (3.5%) were called active. Inconclusive results (about 4%) are left out. For the sample, actives were picked, then their nearest neighbours and some compounds at random.
PARAMETER MEASURED: Potency

Known results for compounds:
CCCCn1c(SCC(=O)NCC2CCCO2)nc2ccc(N3CCOCC3)cc2c1=O (configuration not stated)    39.8 µM (active)
c1coc(-c2nc3nc4ccccc4n3nc2-c2ccco2)c1    39.8 µM (active)
O=c1/c(=C/c2ccc(CNS(=O)(=O)c3ccccc3)o2)sc2n1CCN=2    50.1 µM (active)

# input What value of Potency has been recorded for this entry: "CCn1c(CNc2ccc(OC)cc2)nnc1SCC(=O)c1ccc(OC)cc1"
# output 28.2 µM (active)

# input What value of Potency has been recorded for this entry: CCN1CCN(C(c2cccnc2)c2cc(Cl)c3cccnc3c2O)CC1 (configuration not stated)
# output 39.8 µM (active)

# input What value of Potency has been recorded for this entry: "CCOC(=O)c1ccc(-c2ccc(C(=O)Nc3cccnc3)o2)cc1"
# output 44.7 µM (active)

# input What value of Potency has been recorded for this entry: "Cc1cccc(Oc2c([N+](=O)[O-])c(=O)n(C)c3ccccc23)c1"
# output 6.31 µM (active)
